glycan array binding signal (z-score) overview
Target: Neu5Ac(a2-3)Gal(b1-3)[GlcNAc(b1-6)]GalNAc
Assay: glycan array binding signal (z-score within array); higher = stronger binding
Settings: glycan notation: IUPAC condensed, linker removed
Many of the other results were omitted from the sample, so the strongest signals are more common in it than they were.
measurement_type: glycan array binding signal (z-score)

- MAL-II (Maackia amurensis), P93248 (protein) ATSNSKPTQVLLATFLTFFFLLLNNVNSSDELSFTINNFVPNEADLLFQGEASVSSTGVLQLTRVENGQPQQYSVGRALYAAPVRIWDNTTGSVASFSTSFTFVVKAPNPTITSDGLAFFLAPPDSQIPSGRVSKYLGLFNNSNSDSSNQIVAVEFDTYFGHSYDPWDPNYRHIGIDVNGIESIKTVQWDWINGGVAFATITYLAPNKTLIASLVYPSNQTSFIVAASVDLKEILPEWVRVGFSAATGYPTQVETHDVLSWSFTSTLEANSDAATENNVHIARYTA: 3.23
- Banana lectin (Musa acuminata) (protein) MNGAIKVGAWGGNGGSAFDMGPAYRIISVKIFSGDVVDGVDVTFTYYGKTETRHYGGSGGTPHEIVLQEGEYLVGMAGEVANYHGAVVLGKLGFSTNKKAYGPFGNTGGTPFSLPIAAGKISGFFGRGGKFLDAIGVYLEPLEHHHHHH: -0.214
- MGL6A (Homo sapiens) (protein) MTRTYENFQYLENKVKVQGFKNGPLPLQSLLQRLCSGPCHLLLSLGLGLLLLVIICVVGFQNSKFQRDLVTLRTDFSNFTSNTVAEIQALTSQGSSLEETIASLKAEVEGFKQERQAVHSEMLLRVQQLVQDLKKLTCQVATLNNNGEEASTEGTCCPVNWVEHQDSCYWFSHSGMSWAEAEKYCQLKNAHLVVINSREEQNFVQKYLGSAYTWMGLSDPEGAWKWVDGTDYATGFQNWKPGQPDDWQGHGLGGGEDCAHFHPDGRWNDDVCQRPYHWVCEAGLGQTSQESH: -1.57

Data provenance: the supplement of paper PMC8728848
